This collection of values is drawn from the supplement of paper PMC11208160.

Readings of recombinant UMI read abundance (log10) for the listed sequences
- Assay Name: recombinant UMI read abundance after kanamycin selection (control-corrected) (log10(CPM+1)); higher = more efficient recombination; extreme values may be limits of the assay; sequences stand for … in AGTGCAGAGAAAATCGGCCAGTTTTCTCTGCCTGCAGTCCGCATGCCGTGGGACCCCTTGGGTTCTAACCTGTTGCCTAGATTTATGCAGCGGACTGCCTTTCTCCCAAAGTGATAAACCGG…AGGTTGGTTTCACT; site = the 11-nt donor;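 note: IS621 bridge recombinase in Escherichia coli cells against a fixed T5 target plasmid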
Form field (numeric): enter value without unit.

Examples with answers:
Chain | recombinant UMI read abundance (log10)
CACTTCTCATGGACCGGTTTTCCCGGTAATCCGTATTTGCC (site CACTGCTCTGG) | 0
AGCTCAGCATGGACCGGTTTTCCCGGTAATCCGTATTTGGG (site AGCTCAGCTAC) | 0.00707
TAACGCACATGGACCGGTTTTCCCGGTAATCCGTATTTGGT (site TAACGCACTAC) | 0.736

Quickly give me recorded recombinant UMI read abundance (log10) for TAGCTCGCATGGACCGGTTTTCCCGGTAATCCGTATTTGAA (site TAGCTTGCTTT)
0.0127

Give me measured recombinant UMI read abundance (log10), please, for this sequence: GGTGGAACATGGACCGGTTTTCCCGGTAATCCGTATTTGTT (site AGTGGAACTAA)
0.371

Give reported recombinant UMI read abundance (log10) value for AGAAATGCATGGACCGGTTTTCCCGGTAATCCGTATTTGAG (site AGAAATGCTCT)
2.88

Entry CGCTCCTCATGGACCGGTTTTCCCGGTAATCCGTATTTGCA (site CGCTCCTCTTG) needs its recombinant UMI read abundance (log10) filled in; supply it.
2.84

Query recombinant UMI read abundance (log10) for TCGGTATCATGGACCGGTTTTCCCGGTAATCCGTATTTGCA (site TCGGTATCTTG)
2.31

Please give the documented recombinant UMI read abundance (log10) of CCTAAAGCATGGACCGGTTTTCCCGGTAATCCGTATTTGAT (site CCTAGAGCTAT)
0.00698

Entry CTCCCTACATGGACCGGTTTTCCCGGTAATCCGTATTTGCG (site CTCCCTACTCG) needs its recombinant UMI read abundance (log10) filled in; supply it.
0.488

Entry TAGCATACATGGACCGGTTTTCCCGGTAATCCGTATTTGCA (site TAGCATACTTG) needs its recombinant UMI read abundance (log10) filled in; supply it.
1.62

Specify recombinant UMI read abundance (log10) for GGAAAGGCATGGACCGGTTTTCCCGGTAATCCGTATTTGCT (site TGAAAGGCTAG) and stop.
1.25

====

The entries below are paired with their reported recombinant UMI read abundance (log10).
- Assay Name: recombinant UMI read abundance after kanamycin selection (control-corrected) (log10(CPM+1)); higher = more efficient recombination; extreme values may be limits of the assay; sequences stand for … in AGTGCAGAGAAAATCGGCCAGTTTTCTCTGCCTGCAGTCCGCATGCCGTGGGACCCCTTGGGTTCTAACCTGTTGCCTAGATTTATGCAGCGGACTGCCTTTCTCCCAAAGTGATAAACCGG…AGGTTGGTTTCACT; site = the 11-nt donor
Respond using a number only.

Chain | Reported Value
AGGGAACCATGGACCGGTTTTCCCGGTAATCCGTATTTGAT (site CGGGAACCTAT) | 0

Please give measured recombinant UMI read abundance (log10) of the following entry: AATTATGCATGGACCGGTTTTCCCGGTAATCCGTATTTGGC (site AATTATGCTCC)
0.0199

Provide recombinant UMI read abundance (log10) value for the following sequence: CGGCAGTCATGGACCGGTTTTCCCGGTAATCCGTATTTGCC (site CGGAAGTCTGG)
0

Quote recombinant UMI read abundance (log10) reported for CTACTAACATGGACCGGTTTTCCCGGTAATCCGTATTTGGC (site CTACTAACTAC) please.
0.561

# return recorded recombinant UMI read abundance (log10) for input TACTTGGCATGGACCGGTTTTCCCGGTAATCCGTATTTGTG (site TACTTGGCTCA)
0.305

Answer with reported recombinant UMI read abundance (log10) of CAGAATCCATGGACCGGTTTTCCCGGTAATCCGTATTTGTT (site CAGAATCCTAA)
2.07
